I'd appreciate it if you could supply GI50 values for the items below.
# System: A549
# test description: NCI tumour cell line growth inhibition, 48 h
Activity calls are given as the source filed them. No stated cut-off is given here; in the data, active = GI50 up to about 1.1 µM and inactive = higher. Where a SMILES comes first, the peptide text is derived from it. [ ]: non-standard residue; d: D form. The star is where a group is joined. NMeAc5c = CNC1(C(=O)O)CCCC1; Boc = CC(C)(C)OC(=O)*; OBn = c1ccc(CO*)cc1

# example entries with known answers
{"columns": ["molecule", "metric name", "reading"],
 "data": [
  ["CCCCn1c(O)nc2c(N)ncnc21", "GI50", "> 100 µM (inactive)"],
  ["CCCCCCCCCCCCCCCC(=O)OC1C(O)C(CO)OC(OC)C1NC(=O)N(CCCl)N=O (centres undefined)", "GI50", "10.3 µM (inactive)"],
  ["CN(C(=O)C(Cc1ccccc1)NC(=O)OC(C)(C)C)C1(C(=O)NC(Cc2ccccc2)C(=O)OCc2ccccc2)CCCC1 (stereo not drawn) (Boc-Phe-[NMeAc5c]-Phe-OBn; configuration not given here)", "GI50", "33.3 µM (inactive)"]
]}

Lab note: next molecule to report on.
For the molecule N#Cc1c(-c2ccc([N+](=O)[O-])cc2)c2c([nH]c1=O)-c1ccccc1CCC2 , what GI50 is on record?
42.8 µM (inactive)

* * *

I'd be grateful if you could share measured GI50 for these entries.
# Test system: HT-29
# test description: NCI tumour cell line growth inhibition, 48 h
The source made the active and inactive calls. Rule as the data show it: active = GI50 up to about 1.1 µM and inactive = higher.

{"columns": ["compound", "metric name", "reading"],
 "data": [
  ["O=C(O)CCCOc1cc(-c2ccccc2F)nc2cc3c(cc12)OCO3", "GI50", "4.54 µM (inactive)"],
  ["Oc1ccc(/C=N/c2nccs2)c(O)c1", "GI50", "> 100 µM (inactive)"],
  ["CCCCCCCCC/C=C/C=C/C(=O)NCC(=O)NC1C(O)C(O)C(Nc2ncnc3[nH]cnc23)OC1C(O)CO (centres undefined)", "GI50", "0.0011 µM (active)"]
]}

# next compound below
Fill in: GI50 of C=C1C(=O)OC2/C=C(/CO)C3(O)CC(O)C(C)(CC(OC(=O)/C(C)=C/C)C12)O3 (centres undefined) is ___
8.09 µM (inactive)

* * *

# Tested on: HCT-116
# test description: NCI tumour cell line growth inhibition, 48 h
Active and inactive are the calls of the source. Cut-off read from the data, not from the text of the source: active = GI50 up to about 1.1 µM and inactive = higher.
metric name: GI50

{"columns": ["molecule", "metric name", "reading"],
 "data": [
  ["CCc1nc2c(O)ccc(O)c2nc1C", "GI50", "8.38 µM (inactive)"],
  ["N#CC1=C(c2ccccc2)NNC(c2ccc(Cl)cc2)CC1=O (centres undefined)", "GI50", "49.3 µM (inactive)"],
  ["O=C(CC(C(=O)c1cccs1)c1ccccc1)c1ccccc1O (centres undefined)", "GI50", "4.74 µM (inactive)"],
  ["N#CC1=C2SCCN2C(=O)C(C#N)C12CCCCC2 (centres undefined)", "GI50", "> 100 µM (inactive)"],
  ["CC(=O)NCC1OC2COC(c3ccccc3)OC2C(NC(=O)c2ccccc2)C1OC(=O)c1ccccc1 (centres undefined)", "GI50", "> 100 µM (inactive)"]
]}

Parameters: items (list). Returns: GI50 for each item.
1. CCCCCCNC(=O)c1cnc(Cl)cn1
2. Cc1ccc(NC(=O)CSc2nnc(Cc3ccccc3)o2)cc1
3. O=C(/C=C/c1ccsc1)c1ccc(Cl)s1
4. O=C1c2cccc(O)c2C(=O)c2cccc(O)c21
5. N#Cc1c2nc3ccccc3nc2n2ccccc12
6. N#Cc1ccc(Nc2nc3[nH]cnc3c(=O)[nH]2)cc1
7. C/C(CC(=O)Nc1cccc([N+](=O)[O-])c1)=N\NC(=O)CC#N

17.1 µM (inactive)
> 100 µM (inactive)
25.4 µM (inactive)
> 100 µM (inactive)
> 100 µM (inactive)
> 100 µM (inactive)
> 100 µM (inactive)

* * *

# System: HCC 2998
# test description: NCI tumour cell line growth inhibition, 48 h
Calls of active or inactive are those of the source. Cut-off read from the data, not from the text of the source: active = GI50 up to about 1.1 µM and inactive = higher.
Your response should consist of one outcome taken from class 1 = active, class 0 = inactive

{"columns": ["molecule", "subject of test", "group label"],
 "data": [
  ["CC(C)C[C@H](NC(=O)[C@H](Cc1ccc(F)cc1)NC(=O)c1ccccn1)B(O)O", "HCC 2998", "class 1"],
  ["C/C(=N/Nc1ccc([N+](=O)[O-])cc1[N+](=O)[O-])C(CC(C(=O)NCc1ccccc1)/C(C)=N\\Nc1ccc([N+](=O)[O-])cc1[N+](=O)[O-])C(=O)NCc1ccccc1 (stereo not drawn)", "HCC 2998", "class 0"],
  ["Cc1ccc(NCCCN2CCN(CCCNc3ccc(C)c4sc5ccccc5c(=O)c34)CC2)c2c(=O)c3ccccc3sc12", "HCC 2998", "class 0"]
]}

Please look at the following molecule next.
Recorded call for COC(=O)/C=C(\C)CC(O)/C=C(\C)CCC=C(C)C (stereo not drawn) ?
class 0

* * *

Would you kindly list GI50 for each of these compounds?
# System: OVCAR-3
# test description: NCI tumour cell line growth inhibition, 48 h
Calls of active or inactive are those of the source. No stated cut-off is given here; in the data, active = GI50 up to about 1.1 µM and inactive = higher. Where a SMILES comes first, the peptide text is derived from it. [ ]: non-standard residue; d: D form. The star is where a group is joined. NMeAc5c = CNC1(C(=O)O)CCCC1; Boc = CC(C)(C)OC(=O)*; OBn = c1ccc(CO*)cc1

{"columns": ["compound", "GI50"],
 "data": [
  ["CN(C(=O)C(Cc1ccccc1)NC(=O)OC(C)(C)C)C1(C(=O)NC(Cc2ccccc2)C(=O)OCc2ccccc2)CCCC1 (stereo not drawn) (Boc-Phe-[NMeAc5c]-Phe-OBn; configuration not given here)", "31.8 µM (inactive)"]
]}

For every item below, please supply its GI50.
1. COc1cc(CNc2cnc3cc(N)ccc3n2)cc(OC)c1OC
2. CCCCCCCCCCCCCCCCSS(C)(=O)=O
3. CN1C(=O)N(C)C(N2CCCC2)c2c1nc1ccccn1c2=O (stereo unspecified)
4. O=c1[nH]cnc2cccc(Cl)c12
5. COc1cc(Oc2nc3cc(F)c(F)cc3nc2-c2ccccc2)cc(OC)c1OC
6. CCOC(=O)c1c(-c2ccc(Cl)cc2)c(C#N)c(=S)n(C2OC(CO)C(O)C(O)C2O)c1-c1ccccc1 (stereo unspecified)
7. C/C1=C\[C@H](C)C[C@H](C)OC(=O)C[C@H](c2ccc(O)cc2)NC(=O)[C@H](Cc2ccc(O)c(Br)c2)N(C)C(=O)[C@H](C)NC(=O)[C@@H](C)C1

["12.6 µM (inactive)", "10.9 µM (inactive)", "77.3 µM (inactive)", "> 100 µM (inactive)", "> 100 µM (inactive)", "21.3 µM (inactive)", "> 25 µM (inactive)"]

Give measured GI50 for every item shown.
1. Nc1ccn(C2CCC(CO)O2)c(=O)n1 (stereo unspecified)
2. CC1=NN(C(=O)CC(=O)Nc2ccc(C)cc2)C(=O)C1/N=N/c1ccc(C(=O)O)cc1 (stereo unspecified)
3. CCc1n[nH]c(=O)n1O
4. O=C(OCC(OC(=O)c1ccccc1)C(OC(=O)c1ccccc1)C(OC(=O)c1ccccc1)c1cnn(-c2ccccc2)n1)c1ccccc1 (stereo unspecified)
5. CC(C)(C)OC(=O)NCC(C#N)CNC(=O)OC(C)(C)C
6. N#Cc1c2nc3ccccc3nc2n2ccccc12

1: > 100 µM (inactive); 2: > 100 µM (inactive); 3: > 100 µM (inactive); 4: > 100 µM (inactive); 5: > 100 µM (inactive); 6: > 100 µM (inactive)

Look at each compound and report its GI50.
1. O=c1c2cccnc2ncn1CCN1CCCCC1
2. CCCCCCCCOc1ccc(/C=C/C2=[N+](CCO)CCO2)cc1

1. > 100 µM (inactive)
2. 3.15 µM (inactive)

* * *

# Test system: TK-10
# test description: NCI tumour cell line growth inhibition, 48 h
Calls of active or inactive are those of the source. Rule as the data show it: active = GI50 up to about 1.1 µM and inactive = higher.
Allowed answers: true (1) (active), false (0) (inactive)

Recorded test call requested for COC(=O)[C@](NC(=O)OCc1ccccc1)([C@@H](C)[S+]([O-])c1ccc(C)cc1)C(F)(F)F (some centres undefined)
false (0)

* * *

# Test system: SR
# test description: NCI tumour cell line growth inhibition, 48 h
Active and inactive are the calls of the source. Cut-off read from the data, not from the text of the source: active = GI50 up to about 1.1 µM and inactive = higher.
The reply should be one of these categories: active, inactive

Examples from the recorded data:
{"columns": ["molecule", "subject of test", "group label"],
 "data": [
  ["CC(C)(Oc1ccc(C2C[C@H]2Cl)cc1)C(=O)O (some centres undefined)", "SR", "inactive"],
  ["O=C(Nc1ccccc1)c1cc2c(cc1Cl)SC(NNCCO)=NS2(=O)=O", "SR", "inactive"],
  ["COC(=O)[C@](NC(=O)OCc1ccccc1)([C@@H](C)[S+]([O-])c1ccc(C)cc1)C(F)(F)F (some centres undefined)", "SR", "inactive"],
  ["CCc1n[nH]c(=O)n1O", "SR", "inactive"],
  ["Cc1ccc(S(=O)(=O)NCCCSCCSCCCN)cc1", "SR", "inactive"]
]}

Returns: the outcome recorded for N#Cc1c(-c2ccc([N+](=O)[O-])cc2)c2c([nH]c1=O)-c1ccccc1CCC2 in this assay.
inactive

// outcome(item) with item = NS(=O)(=O)c1ccc(NNc2c3ccccc3nc3ccccc23)cc1
inactive

Called result for O=C(Cc1nc2ccc(C(=O)c3ccccc3)cc2nc1O)C(=O)Nc1ccc(C(F)(F)F)cc1[N+](=O)[O-]
inactive

Please let me know the test result on file for COc1cccc(OC)c1C(=O)OCc1ccccc1 .
inactive
